assayed.target: PSMA (Homo sapiens, UniProt Q04609)
Construct: host or cells: 22Rv1 human prostate cancer cells
Sequence (Q04609 whole entry): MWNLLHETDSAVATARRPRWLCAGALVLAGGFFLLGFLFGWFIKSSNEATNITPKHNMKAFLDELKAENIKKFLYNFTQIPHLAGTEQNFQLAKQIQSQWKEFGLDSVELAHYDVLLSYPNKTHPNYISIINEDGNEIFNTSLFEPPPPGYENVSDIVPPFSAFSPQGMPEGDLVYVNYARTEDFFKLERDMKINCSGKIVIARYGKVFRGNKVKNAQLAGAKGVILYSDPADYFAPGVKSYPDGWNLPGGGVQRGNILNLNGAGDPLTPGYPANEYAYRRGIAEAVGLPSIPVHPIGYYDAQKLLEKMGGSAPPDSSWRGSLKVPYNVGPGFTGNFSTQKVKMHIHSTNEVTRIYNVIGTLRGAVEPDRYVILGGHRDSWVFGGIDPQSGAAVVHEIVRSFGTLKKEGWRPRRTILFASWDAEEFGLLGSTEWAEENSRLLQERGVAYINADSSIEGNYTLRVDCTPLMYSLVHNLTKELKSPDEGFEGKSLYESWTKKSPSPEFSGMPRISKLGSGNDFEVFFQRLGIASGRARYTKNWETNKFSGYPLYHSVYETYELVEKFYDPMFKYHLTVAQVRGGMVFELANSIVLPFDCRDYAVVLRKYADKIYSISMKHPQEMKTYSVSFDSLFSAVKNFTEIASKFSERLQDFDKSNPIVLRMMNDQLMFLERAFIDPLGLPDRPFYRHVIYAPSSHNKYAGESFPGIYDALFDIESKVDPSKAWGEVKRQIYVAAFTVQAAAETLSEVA
test.summary: Relative binding affinity of DUPA-NIR conjugates with respect to DUPA-FITC on 22Rv1 cells, flow cytometry
measurement.conditions: in vitro binding affinity data

{"compound": "CN1/C(=C/C=C2\\CCCC(/C=C/C3=[N+](C)c4ccc(S(=O)(=O)[O-])cc4C3(C)C)=C2Oc2ccc(C[C@H](NC(=O)[C@H](Cc3ccccc3)NC(=O)CCCCCCCNC(=O)CC[C@H](NC(=O)N[C@@H](CCC(=O)O)C(=O)O)C(=O)O)C(=O)O)cc2)C(C)(C)c2cc(S(=O)(=O)O)ccc21 [Compound 56]", "affinity for PSMA (in words)": "very high affinity"}
{"compound": "CC1(C)C(/C=C/C2=C(Oc3ccc(C[C@H](NC(=O)[C@H](Cc4ccccc4)NC(=O)[C@H](Cc4ccccc4)NC(=O)CCCCCCCNC(=O)CC[C@H](NC(=O)N[C@@H](CCC(=O)O)C(=O)O)C(=O)O)C(=O)O)cc3)C(=C/C=C3/N(CCCCS(=O)(=O)O)c4ccc(S(=O)(=O)O)cc4C3(C)C)/CCC2)=[N+](CCCCS(=O)(=O)[O-])c2ccc(S(=O)(=O)O)cc21 [Compound 23]", "affinity for PSMA (in words)": "very high affinity"}
{"compound": "CN1/C(=C/C=C2\\CCCC(/C=C/C3=[N+](C)c4ccccc4C3(C)C)=C2Oc2ccc(C[C@H](NC(=O)[C@H](Cc3ccccc3)NC(=O)CCCCCCCNC(=O)CC[C@H](NC(=O)N[C@@H](CCC(=O)O)C(=O)O)C(=O)O)C(=O)O)cc2)C(C)(C)c2ccccc21 [Compound 55]", "affinity for PSMA (in words)": "very high affinity"}

----------
System: human prostate tumor xenografts (22Rv1 cells)
test.summary: Tissue biodistribution and tumor-to-tissue fluorescence ratio of DUPA-NIR conjugates, IVIS imaging
Format: in vivo, mice
measurement.conditions: 2 h after tail vein injection
property.name: tumor-to-background ratio (TBR), in words

{"compound": "CC1(C)C(/C=C/C2=C(Oc3ccc(C[C@H](NC(=O)CCCCCCCNC(=O)CC[C@H](NC(=O)N[C@@H](CCC(=O)O)C(=O)O)C(=O)O)C(=O)O)cc3)C(=C/C=C3/N(CCCCS(=O)(=O)O)c4ccc(S(=O)(=O)O)cc4C3(C)C)/CCC2)=[N+](CCCCS(=O)(=O)[O-])c2ccc(S(=O)(=O)O)cc21 [Compound 4, DUPA-EAOA-Tyr-S0456]", "recorded.value": "best"}

----------
assayed.target: PSMA (Homo sapiens)
Construct: host or cells: 22Rv1 human prostate cancer cells
test.summary: Relative binding affinity of DUPA-NIR conjugates with respect to DUPA-FITC on 22Rv1 cells, flow cytometry
measurement.conditions: conjugates with variable length spacers, 1 h at 37° C., 100 nM DUPA-FITC
property.name: pKd
Would you please state pKd, meaning minus log10 of the concentration in mol/L, as a bare number?

{"smiles.input": "CC1(C)C(/C=C/C2=C(Oc3ccc(C[C@H](NC(=O)CC[C@H](NC(=O)N[C@@H](CCC(=O)O)C(=O)O)C(=O)O)C(=O)O)cc3)C(=C/C=C3/N(CCCCS(=O)(=O)O)c4ccc(S(=O)(=O)O)cc4C3(C)C)/CCC2)=[N+](CCCCS(=O)(=O)[O-])c2ccc(S(=O)(=O)O)cc21", "property.name": "pKd", "recorded.value": 6.85}

Data request: State its pKd on PSMA (Homo sapiens): "CC1(C)C(/C=C/C2=C(Oc3ccc(C[C@H](NC(=O)CCCCCCCNC(=O)CCCCCCCNC(=O)CC[C@H](NC(=O)N[C@@H](CCC(=O)O)C(=O)O)C(=O)O)C(=O)O)cc3)C(=C/C=C3/N(CCCCS(=O)(=O)O)c4ccc(S(=O)(=O)O)cc4C3(C)C)/CCC2)=[N+](CCCCS(=O)(=O)[O-])c2ccc(S(=O)(=O)O)cc21"
Data returned: 7.76

Data request: Fill in the recorded pKd for this compound, with PSMA (Homo sapiens) as test system: "CC1(C)C(/C=C/C2=C(Oc3ccc(C[C@H](NC(=O)[C@H](Cc4ccccc4)NC(=O)[C@H](Cc4ccccc4)NC(=O)CCCCCCCNC(=O)C[C@H](NC(=O)CC[C@H](NC(=O)N[C@@H](CCC(=O)O)C(=O)O)C(=O)O)C(=O)O)C(=O)O)cc3)C(=C/C=C3/N(CCCCS(=O)(=O)O)c4ccc(S(=O)(=O)O)cc4C3(C)C)/CCC2)=[N+](CCCCS(=O)(=O)[O-])c2ccc(S(=O)(=O)O)cc21"
Data returned: 7.63
